measurement.description: In vivo pharmacokinetic study in rats
protocol.conditions: male, SD, rat, plasma, oral, 3 mg/kg intravenous, 6 mg/kg intragastric

| smiles.entry | unit.symbol | bioavailability |
| --- | --- | --- |
| CCOc1cc2ncnc(Nc3ccc(Oc4ccn5ncnc5c4)c(C)c3)c2cc1NC(=O)/C(F)=C/[C@H]1CCCN1C | % | 71.3 |

###

This section presents molecules with their documented inhibition at 20 min, 10 µM values.
measurement.target: CYP3A4 (Homo sapiens)
Construct: A system of 100 μL human liver microsomes; from tissue; host or cells: human liver microsomes
Sequence (P08684 whole entry): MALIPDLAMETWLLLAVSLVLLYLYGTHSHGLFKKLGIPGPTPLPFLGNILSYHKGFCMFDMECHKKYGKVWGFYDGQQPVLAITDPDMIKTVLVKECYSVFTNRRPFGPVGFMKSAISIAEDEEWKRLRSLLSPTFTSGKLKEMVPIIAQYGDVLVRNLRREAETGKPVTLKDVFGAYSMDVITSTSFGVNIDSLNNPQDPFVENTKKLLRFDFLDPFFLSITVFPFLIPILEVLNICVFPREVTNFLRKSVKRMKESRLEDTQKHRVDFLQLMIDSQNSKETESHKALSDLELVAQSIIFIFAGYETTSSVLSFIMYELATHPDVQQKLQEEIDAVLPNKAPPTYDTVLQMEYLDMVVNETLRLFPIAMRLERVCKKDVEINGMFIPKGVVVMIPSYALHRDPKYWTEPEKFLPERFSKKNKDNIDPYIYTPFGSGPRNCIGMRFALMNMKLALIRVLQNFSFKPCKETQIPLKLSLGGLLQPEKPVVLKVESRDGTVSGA
measurement.description: Direct inhibition (DI) of CYP3A4 in human liver microsomes
Format: in vitro ADME
protocol.conditions: human liver microsomes 0.2 mg/mL, 10 μM compound, probe Midazolam, read-out: Direct inhibition (DI) 3A4 (Midazolam)
recorded.endpoint: inhibition at 20 min, 10 µM (%)

| molecule | limit.sign | meas.value |
| --- | --- | --- |
| C=CC(=O)N[C@H]1CCCN(c2ccc3ncnc(Nc4ccc(Oc5cc6nncn6cn5)c(C)c4)c3c2)C1 [Final product of Embodiment 5] | = | 71 |
| CCOc1cc2ncc(C#N)c(Nc3ccc(Oc4cc5nncn5cn4)c(C)c3)c2cc1NC(=O)/C=C/[C@H]1CCCN1 [Final product of Embodiment 32] | = | 8 |
| CCOc1cc2ncnc(Nc3ccc(Oc4ccn5ncnc5c4)c(C)c3)c2cc1NC(=O)/C(F)=C\[C@H]1CCCN1C [Final product of Embodiment 44] | < | 0 |
| CCOc1cc2ncc(C#N)c(Nc3ccc(OCc4ccccn4)c(Cl)c3)c2cc1NC(=O)/C=C/[C@H]1CCCN1C [Pyrotinib, reference compound] | = | 15 |
| CCOc1cc2ncnc(Nc3ccc(Oc4ccn5ncnc5c4)c(C)c3)c2cc1NC(=O)/C(F)=C/[C@@H]1CCCN1C [Final product of Embodiment 47] | = | 33 |
| Cc1cc(Nc2ncnc3ccc(NC(=O)/C=C/[C@H]4CCCN4C)cc23)ccc1Oc1ccc2nccn2c1 [Final product of Embodiment 24] | = | 36 |

Cited source for all entries: patent US11578074B2
